assay: Food effect studies: pharmacokinetics of mifepristone under fasting and fed conditions; format: in vivo, human; details: human, plasma, oral, 600 mg, 600 mg single dose, Fed 50% fat, healthy adults, Study 12; read-out: AUCinf Geo Mean
measurementType: AUC(0-inf) (µg·h/mL)

| givenSmiles | unitInfo | testResult |
| --- | --- | --- |
| CC#C[C@]1(O)CC[C@H]2[C@@H]3CCC4=CC(=O)CCC4=C3[C@@H](c3ccc(N(C)C)cc3)C[C@@]21C | µg·h/mL | 134 |

----------
experiment: Food effect studies: pharmacokinetics of mifepristone under fasting and fed conditions; type: in vivo, human; details: human, plasma, oral, 600 mg/day, 600 mg/day x 7 days, Fast, healthy adults, historical Studies C-1073-05 and C-1073-300 Part II (reference for C3); read-out: AUC0-24 Geo Mean
measurementType: AUC(0-t) (ng·h/mL)

| molecule | measurementType | testResult |
| --- | --- | --- |
| CC#C[C@]1(O)CC[C@H]2[C@@H]3CCC4=CC(=O)CCC4=C3[C@@H](c3ccc(N(C)C)cc3)C[C@@]21C [Mifepristone] | AUC(0-t) | 43600 |

----------
experiment: Food effect studies: pharmacokinetics of mifepristone under fasting and fed conditions; format: in vivo, human; conditions: human, plasma, oral, 600 mg/day, 600 mg/day x 7 days, Fed 34% fat, healthy adults, Cohort 3 of CORT-108297-102; read-out: AUC0-24 Geo Mean

| givenSmiles | AUC(0-t) (ng·h/mL) |
| --- | --- |
| CC#C[C@]1(O)CC[C@H]2[C@@H]3CCC4=CC(=O)CCC4=C3[C@@H](c3ccc(N(C)C)cc3)C[C@@]21C | 62600 |

----------
experiment: Food effect studies: pharmacokinetics of mifepristone under fasting and fed conditions; assay type: in vivo, human; settings: human, plasma, oral, 1200 mg, 1200 mg single dose, Fast, healthy adults, Study 20; read-out: Cmax Geo Mean

| givenSmiles | Cmax [ng/mL] |
| --- | --- |
| CC#C[C@]1(O)CC[C@H]2[C@@H]3CCC4=CC(=O)CCC4=C3[C@@H](c3ccc(N(C)C)cc3)C[C@@]21C | 2830 |

----------
experiment: Food effect studies: pharmacokinetics of mifepristone under fasting and fed conditions; type: in vivo, human; settings: human, plasma, oral, 600 mg, 600 mg single dose, Fed 50% fat, healthy adults, Study 12; read-out: Cmax Geo Mean
measurementType: Cmax (ng/mL)

| givenSmiles | unitInfo | testResult |
| --- | --- | --- |
| CC#C[C@]1(O)CC[C@H]2[C@@H]3CCC4=CC(=O)CCC4=C3[C@@H](c3ccc(N(C)C)cc3)C[C@@]21C | ng/mL | 2740 |

----------
assay: Food effect studies: pharmacokinetics of mifepristone under fasting and fed conditions; format: in vivo, human; details: human, plasma, oral, 1200 mg, 1200 mg single dose, Fed 50% fat, healthy adults, Study 20; read-out: Cmax Geo Mean
measurementType: Cmax (ng/mL)

| givenSmiles | testResult |
| --- | --- |
| CC#C[C@]1(O)CC[C@H]2[C@@H]3CCC4=CC(=O)CCC4=C3[C@@H](c3ccc(N(C)C)cc3)C[C@@]21C | 3660 |

----------
test: Food effect studies: pharmacokinetics of mifepristone under fasting and fed conditions; type: in vivo, human; settings: human, plasma, oral, 1200 mg/day, 1200 mg/day x 7 days, Fed 34% fat, healthy adults, Study 27; read-out: AUC0-24 Geo Mean

| molecule | unitInfo | AUC(0-t) |
| --- | --- | --- |
| CC#C[C@]1(O)CC[C@H]2[C@@H]3CCC4=CC(=O)CCC4=C3[C@@H](c3ccc(N(C)C)cc3)C[C@@]21C [Mifepristone] | ng·h/mL | 72800 |
